- subject of test: T1, human C5 R885C-mmh (human, UniProt P01031 19-1676)
- T1 construct: also called human C5 variant R885C
- test protocol: SPR, mAb captured via anti-hFc, 25C
property: koff
Express your answer as a number followed by its unit.

Consider the reported koff for these binders:
binder: H4H12168P (antibody, human IgG4, V domains shown, Human IgG4 Fc with S108P hinge mutation (H4H)) VH: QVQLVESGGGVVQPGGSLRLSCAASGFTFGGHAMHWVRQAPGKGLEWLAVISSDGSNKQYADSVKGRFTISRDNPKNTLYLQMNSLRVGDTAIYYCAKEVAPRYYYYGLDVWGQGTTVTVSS VL: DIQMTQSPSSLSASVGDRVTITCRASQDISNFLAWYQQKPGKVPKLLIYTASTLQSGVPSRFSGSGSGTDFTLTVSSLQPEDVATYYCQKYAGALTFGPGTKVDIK
endpoint value: 0.000199 s⁻¹
--
binder: H4H12159P (antibody, human IgG4, V domains shown, Human IgG4 Fc with S108P hinge mutation (H4H)) VH: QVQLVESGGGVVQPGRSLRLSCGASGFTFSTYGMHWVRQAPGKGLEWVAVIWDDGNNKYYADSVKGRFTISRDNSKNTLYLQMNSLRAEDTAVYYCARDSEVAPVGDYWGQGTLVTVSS VL: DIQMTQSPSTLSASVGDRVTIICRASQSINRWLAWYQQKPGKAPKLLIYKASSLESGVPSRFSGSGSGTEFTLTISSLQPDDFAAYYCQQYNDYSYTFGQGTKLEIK
endpoint value: 0.000169 s⁻¹

Form: binder = H4H11686N (antibody, V domains shown, also called H2M11686N) VH: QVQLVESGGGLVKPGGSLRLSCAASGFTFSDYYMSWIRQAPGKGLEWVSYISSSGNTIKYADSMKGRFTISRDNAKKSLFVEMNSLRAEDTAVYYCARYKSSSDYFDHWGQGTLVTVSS VL: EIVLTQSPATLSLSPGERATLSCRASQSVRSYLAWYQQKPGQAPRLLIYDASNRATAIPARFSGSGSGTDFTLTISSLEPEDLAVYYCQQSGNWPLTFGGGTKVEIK ; koff = 9.49e-05 s⁻¹
